Where do these numbers come from? They come from PubChem BioAssay (NCATS).

- TEST DETAILS: qHTS assay for small molecule activators of the nuclear factor-kappa B (NF-kB) signaling pathway (AID 651749); note: series mostly up to about 77 µM; % of control where 0% means no effect
- EXPERIMENTAL CONDITIONS: NF-kB-bla ME-180 cells, beta-lactamase FRET ratio, 16 h; hits give high values
Inconclusive results are not listed.

COMPOUND	activation / %
COC(=O)c1c(C(F)F)nc(C(F)(F)F)c(C2=NCCS2)c1CC(C)C	-2.57
CNc1cnn(-c2cccc(C(F)(F)F)c2)c(=O)c1Cl	-1.53
COCC(=O)N(c1c(C)cccc1C)N1CCOC1=O	-1.88
CC(C)Oc1cc(-n2nc(C(C)(C)C)oc2=O)c(Cl)cc1Cl	1.16
O=P(Oc1ccccc1)(Oc1ccccc1)Oc1ccccc1	-2
CCOC(=O)Nc1cccc(OC(=O)Nc2ccccc2)c1	0.127
O=[As](O)(O)O	-0.92
CCCCCCCCCCCC#N	-0.827
CC1(C)[C@H](C(=O)O[C@H](C#N)c2cccc(Oc3ccccc3)c2)[C@@H]1/C=C(\Cl)C(F)(F)F	-0.133
CCOP(=O)(OCC)SCCSCC	0.345
O=C1c2ccccc2C(=O)C1C(=O)C(c1ccccc1)c1ccc(Cl)cc1 (configuration not stated)	-3.47
CCc1cc(C)cc(CC)c1-c1c(OC(=O)C(C)(C)C)n2n(c1=O)CCOCC2	-1.54
